Target: T1, cynomolgus monkey IL-2Rβ/CD122 subunit (cynomolgus monkey) (UniProt Q38J85)
T1 sequence (looked up): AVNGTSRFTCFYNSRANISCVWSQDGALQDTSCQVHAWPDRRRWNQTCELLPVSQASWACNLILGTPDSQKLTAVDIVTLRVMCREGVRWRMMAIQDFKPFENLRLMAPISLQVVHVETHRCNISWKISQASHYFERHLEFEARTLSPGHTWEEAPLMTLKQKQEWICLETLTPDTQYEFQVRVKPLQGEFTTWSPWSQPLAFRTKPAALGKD
Assay: ELISA, monovalent; EC50 cyno vs human subunit
recorded_metric: Fold change (fold)
State the answer as a number, implicitly in fold.

For orientation, consider the following solved cases.
26-MP06A07 VHH-hFc, monospecific monovalent (Fc fusion, part only; not given: Both Fc arms and linker, not shown: another chain or arm of the molecule; a dimerising Fc or GST; large carriers; small tags and cut ends) VHH: QVQLQESGGGLVQAGGSLRLSCAASGDVFVRYTMAWFRQAPGKEREFVASVTDSGRTTEYVDSVKGRFTVSRDNAKNTAYLQMNNLKPEDTAIYYCAANTDYFQIRSLDLNTWGQGTQVTVSS	1.2
16-MP02B08 VHH-hFc, monospecific monovalent (Fc fusion, part only; not given: Both Fc arms and linker, not shown: another chain or arm of the molecule; a dimerising Fc or GST; large carriers; small tags and cut ends) VHH: EVQLVESGGGLVQAGGSLRLSCAASGRAIENYPVGWFRQAPGKEREFVAAITWISGSTLYADSVKGRFTISRDNAKNTVYLQMSSLKPEDTALYYCAAALKTITRGQNDYSYWGQGTQVTVSS	1.3

Let us examine a further case.
Incoming: Fold change for 17-MP02C09 VHH-hFc, monospecific monovalent (Fc fusion, part only; not given: Both Fc arms and linker, not shown: another chain or arm of the molecule; a dimerising Fc or GST; large carriers; small tags and cut ends) VHH: QVQLQESGGGLVQAGGSLRLSCVASGSVSSINGMAWYRQGADNQRVLVAAISRVGNTAYGDSVKGRFTISRQNARNTVYLQMNSLKPEDTAVYYCNADSWGGDDYWGQGTQVTVSS ?
Outgoing: 3.3
